Listed next: entries and their corresponding self-cleavage kobs at 40 uM GlcN6P.
B1: glmS ribozyme (parent)
chain: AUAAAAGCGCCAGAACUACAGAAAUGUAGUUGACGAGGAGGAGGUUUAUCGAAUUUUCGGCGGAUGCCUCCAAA

Variants of: B1
experiment: self-cleavage kobs at 40 uM GlcN6P; higher = faster cleavage; RNA array
details: with glucosamine-6-phosphate
This sample holds only a part of the variants without activity.

{"var": "G35A U47A U57C G66A", "self-cleavage kobs at 40 uM GlcN6P": "< 1e-05 s⁻¹"}
{"var": "C34G G38A C58U", "self-cleavage kobs at 40 uM GlcN6P": "< 1e-05 s⁻¹"}
{"var": "A42G U47C", "self-cleavage kobs at 40 uM GlcN6P": "6.46e-05 s⁻¹"}
{"var": "G41C C50G", "self-cleavage kobs at 40 uM GlcN6P": "< 1e-05 s⁻¹"}
{"var": "C8G A36U G37U A52U U54A", "self-cleavage kobs at 40 uM GlcN6P": "< 1e-05 s⁻¹"}
{"var": "G32U C50G C68G", "self-cleavage kobs at 40 uM GlcN6P": "0.00012 s⁻¹"}
{"var": "C10A U30G A39U C67A", "self-cleavage kobs at 40 uM GlcN6P": "< 1e-05 s⁻¹"}
{"var": "G13U A36G", "self-cleavage kobs at 40 uM GlcN6P": "< 1e-05 s⁻¹"}
{"var": "A52G G63C", "self-cleavage kobs at 40 uM GlcN6P": "< 1e-05 s⁻¹"}
{"var": "U47A U55C", "self-cleavage kobs at 40 uM GlcN6P": "0.000537 s⁻¹"}
{"var": "C16U A42U G62A C67A", "self-cleavage kobs at 40 uM GlcN6P": "< 1e-05 s⁻¹"}
{"var": "G44C U54A U57A U65G U69G", "self-cleavage kobs at 40 uM GlcN6P": "< 1e-05 s⁻¹"}
{"var": "A42C G44C", "self-cleavage kobs at 40 uM GlcN6P": "< 1e-05 s⁻¹"}
{"var": "C16A G51U A64C", "self-cleavage kobs at 40 uM GlcN6P": "< 1e-05 s⁻¹"}
{"var": "A64G C68G C71A", "self-cleavage kobs at 40 uM GlcN6P": "< 1e-05 s⁻¹"}
{"var": "C16U U31C G35A G41A G62U", "self-cleavage kobs at 40 uM GlcN6P": "< 1e-05 s⁻¹"}
{"var": "G9A G13A C34G U49C C68U", "self-cleavage kobs at 40 uM GlcN6P": "< 1e-05 s⁻¹"}
{"var": "U65C", "self-cleavage kobs at 40 uM GlcN6P": "2.21e-05 s⁻¹"}
{"var": "G41U C61A", "self-cleavage kobs at 40 uM GlcN6P": "< 1e-05 s⁻¹"}
{"var": "G62U C67A", "self-cleavage kobs at 40 uM GlcN6P": "< 1e-05 s⁻¹"}
{"var": "C8U U55A C58A", "self-cleavage kobs at 40 uM GlcN6P": "< 1e-05 s⁻¹"}
{"var": "C34U G40A", "self-cleavage kobs at 40 uM GlcN6P": "< 1e-05 s⁻¹"}
